- measurement_target: human recombinant Yes [a.a. 2–543 (end)] (Homo sapiens, UniProt P07947)
- Construct: human recombinant Yes [a.a; 2–543 (end)]; purchased BPS Bioscience 40488
- Sequence (P07947 2-543): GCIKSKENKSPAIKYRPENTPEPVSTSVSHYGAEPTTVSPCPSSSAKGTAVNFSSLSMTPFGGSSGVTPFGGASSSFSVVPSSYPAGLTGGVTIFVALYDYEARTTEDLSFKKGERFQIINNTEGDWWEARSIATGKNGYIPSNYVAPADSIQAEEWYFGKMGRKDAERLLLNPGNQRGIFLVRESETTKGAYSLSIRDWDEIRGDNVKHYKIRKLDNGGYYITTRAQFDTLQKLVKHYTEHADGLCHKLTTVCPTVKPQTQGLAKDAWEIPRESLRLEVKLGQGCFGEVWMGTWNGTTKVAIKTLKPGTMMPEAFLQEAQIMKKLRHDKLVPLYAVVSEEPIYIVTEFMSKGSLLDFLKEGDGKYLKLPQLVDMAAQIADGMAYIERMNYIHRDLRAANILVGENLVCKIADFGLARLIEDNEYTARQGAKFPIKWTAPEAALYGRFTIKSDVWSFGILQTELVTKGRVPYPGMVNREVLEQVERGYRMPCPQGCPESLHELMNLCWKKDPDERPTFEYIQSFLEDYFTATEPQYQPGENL
- test_summary: ADP-Glo kinase assay, inhibition rates of Yes phosphorylation activity (first and second screening)
- Assay type: biochemical
- recorded_conditions: first screening; mean of n = 4 wells; 10 μmol L−1 compound

compound	unit_descriptor	First screening IR (inhibition rate)
Cc1ccc(C(CNC(=O)c2cc(Cl)c[nH]2)N2CCOCC2)o1 (centres unmarked)	%	-10
O=C(NCC1COc2ccccc2O1)c1cccc(OCc2cn3ccccc3n2)c1 (centres unmarked)	%	-12
Cl.Oc1ccc(-c2cc(-c3ccccc3)c3ccccc3n2)cc1	%	24
CCOc1ccc(C(=O)Nc2ccc3c(c2)C(=O)NC3)cc1OCC	%	18
O=C(CN1C(=O)NC(Cc2c[nH]c3ccccc23)C1=O)Nc1ccc(-c2ccccc2)cc1 (centres unmarked)	%	6
Cc1ccc(-c2nn(-c3ccc(F)cc3)cc2C(=O)N(C)CC(=O)Nc2ccc(N3CCOCC3)cc2)cc1	%	46
Cc1c(C(=O)N2CCN(C(=O)C3CCS(=O)(=O)C3)CC2)[nH]c2c1C(=O)CC(C)(C)C2 (centres unmarked)	%	25
Cc1occc1C(=O)Nc1cc(Nc2nccc(C(F)(F)F)n2)ccc1F	%	14

====

- measurement_target: human recombinant Yes [a.a. 2–543 (end)] (Homo sapiens, UniProt P07947)
- Construct: human recombinant Yes [a.a; 2–543 (end)]; purchased BPS Bioscience 40488
- test_summary: ADP-Glo kinase assay, inhibition rates of Yes phosphorylation activity (first and second screening)
- Type: biochemical
- recorded_conditions: first screening; mean of n = 4 wells; 10 μmol L−1 compound

compound	First screening IR (inhibition rate) (%)
Nc1ncnc(Nc2cccc(C(F)(F)F)c2)n1 [Compound Z56931708]	13
NC(=O)c1ccc(CN(C2CC2)S(=O)(=O)c2cccc(Cl)c2)cc1 [Compound Z319895028]	-5
COC(=O)Cn1ncc2c(N3CCCCC3CCC(C)C)ncnc21 (centres unmarked) [Compound Z1419966801]	1
O=C(O)/C=C/c1ccc(NC(=O)CSC(c2ccccc2)c2ccccc2)cc1 [Compound Z224289160]	-8
CCOC(=O)N(C)c1ccc(Nc2nccc(C(F)(F)F)n2)cc1 [Compound Z805455424]	-19
CCOC(=O)c1cc(-c2ccccc2)nc2[nH]c(=O)c3ccccc3c12 [Compound Z295883036]	9
Cn1nnnc1SCC(=O)c1c(-c2ccccc2)[nH]c2ccccc12 [Compound Z18519048]	0
Cn1ncc2c(N3CCN(CC[S+]([O-])c4cc(Cl)ccc4Cl)CC3)ncnc21 (centres unmarked) [Compound Z445169626]	4
O=C(c1ccc(=O)[nH]c1)N1CCN(C(=O)c2cc3ccccc3o2)CC1 [Compound Z368093014]	48
Cc1nn(C)c2nc(-c3ccccc3)cc(C(=O)Nc3ccc4c(c3)OCO4)c12 [Compound Z222976544]	-2
COc1ccc(NC(=O)C(=O)c2c(C)nn(-c3ccccc3)c2C)cc1OCc1cn2ccccc2n1 [Compound Z605682156]	-5
O=C(CSc1nc2ccccc2c(=O)n1CCCN1CCOCC1)Nc1ccc2ccccc2c1 [Compound Z19837911]	46
Cn1cc(NC(=O)C2(c3cccc(C(F)(F)F)c3)CC2)cn1 [Compound Z1068296272]	25
Cc1sc2nc(CN3CCCC3)nc(N(C)CC(=O)Nc3ccc(N4CCOCC4)cc3)c2c1C [Compound Z31148700]	45
Cc1nccn1-c1ccc(C(C)Nc2ncnc3nc(N)ccc23)cc1 (centres unmarked) [Compound Z1537172697]	53
Cc1cc(C)n(-c2ccc(Cl)c(C(=O)OCC(=O)c3ccc(F)c(F)c3)n2)n1 [Compound Z15431588]	20
N#CCOc1ccc(Nc2nccc(C(F)(F)F)n2)cc1 [Compound Z318833320]	7

Taken from paper PMC5607274.
